studyTarget: Rat brain protein farnesyltransferase (Rattus norvegicus, UniProt Q02293+Q04631)
Construct: The enzyme is purified according to Reiss, Y., et al., Cell, 62: 81-88 (1990), utilizing steps one through three; from tissue; host or cells: rat brain
runDescription: In vitro inhibition of protein farnesyltransferase, Amersham scintillation proximity assay with biotin-K Ras B fragment
Type: biochemical
appliedConditions: Inhibition of farnesyltransferase; compound at 1 × 10^−5 M (Table 1)
Where a name gives a salt, the structure may show the parent alone.
Below is a list of entries, each paired with its recorded inhibition at 10 µM value.

[
  {
    "compound": "CC(C)C[C@H](NC(=O)c1ccc(CNCc2c[nH]cn2)cc1-c1cccc2ccccc12)C(=O)O",
    "endpointValue": "50%"
  },
  {
    "compound": "CSCC[C@H](NC(=O)c1ccc(NCc2cnc(-c3ccccc3)[nH]2)cc1-c1ccccc1)C(=O)O",
    "endpointValue": "> 50%"
  },
  {
    "compound": "CC(C)C[C@H](NC(=O)c1ccc(NCc2cccnc2)cc1-c1ccccc1)C(=O)O",
    "endpointValue": "> 50%"
  },
  {
    "compound": "CC(C)C[C@H](NC(=O)c1ccc(NCc2cnc[nH]2)cc1-c1cccc2ccccc12)C(=O)O",
    "endpointValue": "> 50%"
  },
  {
    "compound": "CC(C)C[C@H](NC(=O)c1ccc(NCc2c[nH]cn2)cc1-c1ccccc1)C(=O)O",
    "endpointValue": "> 50%"
  },
  {
    "compound": "O=C(N[C@@H](CC1CCCCC1)C(=O)O)c1ccc(NCc2c[nH]cn2)cc1-c1cccc2ccccc12",
    "endpointValue": "> 50%"
  },
  {
    "compound": "CSCC[C@H](NC(=O)c1ccc(NC(=O)c2cccnc2)cc1-c1ccccc1)C(=O)O [Example 200, Hydrochloride]",
    "endpointValue": "93%"
  }
]

Consider now this further compound.
response.value for CSCC[C@H](NC(=O)c1ccc(NCc2nc[nH]c2C)cc1-c1ccccc1)C(=O)O (field: inhibition at 10 µM) = > 50%

----------
studyTarget: Rat brain protein farnesyltransferase (Rattus norvegicus, UniProt Q02293+Q04631)
Construct: The enzyme is purified according to Reiss, Y., et al., Cell, 62: 81-88 (1990), utilizing steps one through three; from tissue; host or cells: rat brain
runDescription: In vitro inhibition of protein farnesyltransferase, Amersham scintillation proximity assay with biotin-K Ras B fragment
Assay type: biochemical
appliedConditions: Inhibition of farnesyltransferase; compound at 1 × 10^−6 M (Table 2); read-out: % inhibition at 1 × 10^−6 M
Quick rule for you: inhibition at 1 µM at 80% or higher means 1 (yes), lower means 0 (no).

[
  {
    "compound": "CSCC[C@H](NC(=O)c1cc(CC(C)C)c(COc2cccnc2)cc1-c1ccccc1C)C(=O)O",
    "discreteLabel": "1 (yes)"
  },
  {
    "compound": "CSCC[C@H](NC(=O)c1ccc(NC(=O)c2nccn2C)cc1-c1ccccc1)C(=O)O",
    "discreteLabel": "1 (yes)"
  },
  {
    "compound": "CSCC[C@H](NC(=O)c1ccc(COc2cccnc2)cc1-c1ccccc1C)C(=O)NS(=O)(=O)c1ccccc1",
    "discreteLabel": "1 (yes)"
  },
  {
    "compound": "CSCC[C@H](NC(=O)c1ccc(NCc2cccnc2)cc1-c1ccccc1)C(N)=O",
    "discreteLabel": "0 (no)"
  },
  {
    "compound": "CSCC[C@@H](C(=O)O)N(C)C(=O)c1ccc(CNc2cccnc2)cc1-c1ccccc1",
    "discreteLabel": "1 (yes)"
  },
  {
    "compound": "CSCC[C@H](NC(=O)c1ccc(CCc2c[nH]cn2)cc1-c1ccccc1)C(=O)O",
    "discreteLabel": "1 (yes)"
  }
]

Let us examine a further case.
Determine whether this compound has inhibition at 1 µM no lower than 80%: CSCC[C@H](NC(=O)c1ccc(COc2cccnc2)cc1-c1ccccc1C)C(=O)NS(C)(=O)=O
1 (yes)
